Measured growth, listed per entry.
# Tested on: HL-60(TB) leukemia
# assay.method.text: NCI-60 one-dose screen, 48 h (100 = growth as untreated, 0 = no growth, -100 = all killed)
# run.parameters: 10 µM unless noted
Compounds without any hit were thinned out: in the full panel of roughly 83,000, 20% have a hit. Activity calls are given as the source filed them. The calls were made as follows: active = growth percent below 10; inactive = the rest.
measured.quantity: growth

entry.smiles: CC[C@]1(O)C[C@@H]2CN(CCc3c([nH]c4ccccc34)[C@@](C(=O)OC)(c3cc4c(cc3OC)N(C)[C@H]3[C@@](O)(C(N)=O)[C@H](O)[C@]5(CC)[C@@H]6C[C@@H]6CN6CC[C@]43[C@@H]65)C2)C1
measured.quantity: growth
obs.value: -3.28% (active)
--
entry.smiles: O=C(Cc1c(F)cccc1Cl)Nc1ccc(S(=O)(=O)Nc2ncccn2)cc1
measured.quantity: growth
obs.value: 120% (inactive)
--
entry.smiles: Cc1nc(Cl)cc(N(c2cc(Cl)nc(C)n2)c2ncc(C(=O)Nc3c(C)cccc3Cl)s2)n1
measured.quantity: growth
obs.value: 81.3% (inactive)
--
entry.smiles: c1cc(C2CCCCC2)ccc1OCCCCCCN1CCNCC1
measured.quantity: growth
obs.value: -38.4% (active)
--
entry.smiles: Cc1cc2nc(-c3c(-c4ccc(F)cc4)nc4sccn34)[nH]c2cc1C
measured.quantity: growth
obs.value: 87.3% (inactive)
--
entry.smiles: COc1ccccc1Nc1cc(O)c2c(=O)cc(-c3ccccc3)oc2c1
measured.quantity: growth
obs.value: -6.07% (active)
--
entry.smiles: CCCc1cc2c(=O)c(C(=O)OC)c[nH]c2cc1N(CC)CC
measured.quantity: growth
obs.value: 91.6% (inactive)
--
entry.smiles: CC/C(=C(/c1ccc(Cl)cc1)c1ccc(OCCN(CC)CC)cc1)c1ccc(OC)cc1
measured.quantity: growth
obs.value: 33.3% (inactive)
--
entry.smiles: C/C(Cc1ccc(Cl)cc1)=C(\c1ccc(O)cc1)c1ccc(Cl)cc1
measured.quantity: growth
obs.value: 95.7% (inactive)

====

# Tested on: NCI-H226 lung
# assay.method.text: NCI-60 one-dose screen, 48 h
# run.parameters: 10 µM unless noted
# Protocol: Growth inhibition of the NCI-H226 human Non-Small Cell Lung tumor cell line is measured as a screen for anti-cancer activity. Cells are grown in 96 well plates and exposed to the test compound for 48 hours. Compounds are tested at a single concentration, which is 10^-5 M for most compounds. The reported endpoint is percent growth (GI% or GIPRCNT), where numbers from 0 - 100% represent growth inhibition, and numbers from -100% - 0 represent cell death. […]
This is part of a sample that, as a whole, favours compounds with a hit. Of some 83,000 tested, about 20% had one in any assay. Active and inactive are the calls of the source. The calls were made as follows: active = growth percent below 10; inactive = the rest.
Labels: Y for active, N for inactive

compound: CCOC(=O)c1cnc(SCc2ccc(Cl)c(Cl)c2)nc1N1CC1
class: N

compound: CC(=O)O[C@H]1C[C@H](O[C@H]2[C@@H](O)C[C@H](O[C@H]3[C@@H](O)C[C@H](O[C@H]4CC[C@@]5(C)C(CCC6C5C[C@@H](O)[C@]5(C)[C@@H](C7=CC(=O)OC7)CC[C@]65O)C4)O[C@@H]3C)O[C@@H]2C)O[C@H](C)[C@H]1O[C@@H]1O[C@H](CO)[C@@H](O)[C@H](O)[C@H]1O (stereo partly drawn)
class: Y

compound: CC12CCC(=O)C=C1C(O)CC1C2CCC2(C)C(O)CCC12 (stereo not drawn)
class: N

Attribution: PubChem BioAssay (NCI)
